- assayed-system: HNF4alpha8 (COS-7 nuclear extract) (Homo sapiens, UniProt P41235-5 1-452)
- Sequence: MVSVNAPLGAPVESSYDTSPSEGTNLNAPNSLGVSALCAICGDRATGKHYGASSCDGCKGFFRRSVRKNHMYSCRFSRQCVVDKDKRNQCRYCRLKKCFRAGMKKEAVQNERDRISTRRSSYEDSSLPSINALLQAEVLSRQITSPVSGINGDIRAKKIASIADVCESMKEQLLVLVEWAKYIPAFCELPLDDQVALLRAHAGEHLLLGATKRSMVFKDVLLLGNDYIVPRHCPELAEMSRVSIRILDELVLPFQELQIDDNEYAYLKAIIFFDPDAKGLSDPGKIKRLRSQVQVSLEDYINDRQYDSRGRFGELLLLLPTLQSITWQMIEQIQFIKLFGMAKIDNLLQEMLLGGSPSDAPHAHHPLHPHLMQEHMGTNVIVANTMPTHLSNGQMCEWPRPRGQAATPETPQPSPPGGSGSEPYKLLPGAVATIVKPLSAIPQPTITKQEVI
- assay-details: protein-binding microarray; COS-7 nuclear extract on double-stranded Agilent 4x180k PBM; binding buffer, salt, pH and temperature not given in the material; high values mean tight binding
- test-settings: chain copies: 2; label: 3' end of strand 1 on the slide; dsDNA, one strand shown
Over roughly 18,000 sequences, “log2 normalized intensity” has its median near 0.36; the highest 2% begin near 7.3. This excerpt belongs to a sample that is enriched for the highest values.
Measured binding signal values are reported for all entries that follow.
Value expressed in log2 normalized intensity; do not type the unit.

Worked cases, binding signal given:
TGATCCATTCTACCCCTGTGGTTGACCTTTGCCTAGGGAGATTAGAGTATCGGTCGA    8.51
GTCACTGCTCAAAAACACTCAGTTAATTATGCCTAGGGAGATTAGAGTATCGGTCGA    -0.0424
ATGCTAAAGTCTACATTCTAGATGACCCCTGCCTAGGGAGATTAGAGTATCGGTCGA    6.17

Query :: State, for HNF4alpha8 (COS-7 nuclear extract) (Homo sapiens, UniProt P41235-5 1-452), measured binding signal of the sequence listed here: `AGTGACCCTGTCTCTCAGTCTCTGTGGGAGGCCTAGGGAGATTAGAGTATCGGTCGA`
Result :: 1.23

Query :: Report its binding signal with HNF4alpha8 (COS-7 nuclear extract) (Homo sapiens, UniProt P41235-5 1-452) as the test system: `TACCCCTGTGGTTGACCTTTAGTCTCTAGCGCCTAGGGAGATTAGAGTATCGGTCGA`
Result :: 7.47

---

- assayed-system: HNF4alpha8 (COS-7 nuclear extract) (Homo sapiens, UniProt P41235-5 1-452)
- Sequence: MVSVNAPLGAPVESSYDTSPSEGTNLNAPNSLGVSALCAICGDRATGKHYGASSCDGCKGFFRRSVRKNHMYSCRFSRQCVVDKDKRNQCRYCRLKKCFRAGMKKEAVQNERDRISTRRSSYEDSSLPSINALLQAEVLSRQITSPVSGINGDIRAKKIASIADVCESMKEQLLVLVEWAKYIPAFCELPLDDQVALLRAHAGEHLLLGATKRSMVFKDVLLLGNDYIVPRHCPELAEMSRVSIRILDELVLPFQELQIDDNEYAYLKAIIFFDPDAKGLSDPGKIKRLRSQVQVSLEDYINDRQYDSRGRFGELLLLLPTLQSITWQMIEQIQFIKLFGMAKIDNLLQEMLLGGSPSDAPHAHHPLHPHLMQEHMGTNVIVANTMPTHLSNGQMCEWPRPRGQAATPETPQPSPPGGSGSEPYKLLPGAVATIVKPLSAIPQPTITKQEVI
- assay-details: protein-binding microarray; COS-7 nuclear extract on double-stranded Agilent 4x180k PBM; binding buffer, salt, pH and temperature not given in the material; high values mean tight binding
- test-settings: chain copies: 2; label: 3' end of strand 1 on the slide; dsDNA, one strand shown
Over roughly 18,000 sequences, “log2 normalized intensity” has its median near 0.36; the highest 2% begin near 7.3. This excerpt belongs to a sample that is enriched for the highest values.
observation-type: binding signal (log2 normalized intensity)
Provide only the numeric value, understood in log2 normalized intensity.

Look over these answered cases.
ATTTTTCCCTTTGATATTTATCAAGATGAAGCCTAGGGAGATTAGAGTATCGGTCGA    0.842
CTGTGCAAGCCCCTGACCAAGGGTCATGCTGCCTAGGGAGATTAGAGTATCGGTCGA    3.96
CATTTTTTTCCACCCTCCCCTCCCCCTCCTGCCTAGGGAGATTAGAGTATCGGTCGA    6.32
ACAGGTGCTCTTTATCAGCACCAAGAACAAGCCTAGGGAGATTAGAGTATCGGTCGA    -0.837
ATGAACTTTGACCCACCTACATTGATATTCGCCTAGGGAGATTAGAGTATCGGTCGA    5.5

As a next step, examine the sequence that follows.
Query :: Give reported binding signal value for `AGTTTGGTTTAAAGTTCAAGTCATAACTGGGCCTAGGGAGATTAGAGTATCGGTCGA`
Result :: 2.53
